- assay-text: compounds altering RPL19A-GFP fluorescence, TOR branch – cell-based, S. cerevisiae, multiplex flow cytometry, MLPCN, primary screen (AID 2025);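 also: median channel GFP fluorescence of the barcoded RPL19A-GFP strain; ratio of sample median GFP to plate DMSO average so 100% = DMSO; lower means less RPL19A-GFP as with rapamycin TOR inhibition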
- test-parameters: S. cerevisiae RPL19A-GFP strain, 3 h, at 10 µM
The campaign covered roughly 330,000 compounds. About 980 (0.3%) were called active.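 The calls were made as follows: active = percent response vs DMSO below 50%; inconclusive = fewer than 70 events counted for the yeast strain; inactive = the rest.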 The entries come from a sample that favours actives as a whole.
Answer with one of the outcomes y (active), n (inactive)

Consider the following illustrative entries.
molecule | classification
CCC(c1nnnn1Cc1ccccc1)N(Cc1cc2cc(OC)ccc2[nH]c1=O)CC1CCCO1 (centres undefined) | n
CCC(c1nnnn1Cc1ccco1)N(Cc1cc2cc(OC)ccc2[nH]c1=O)C1CCCCC1 (centres undefined) | y
CCC(c1nnnn1Cc1ccco1)N(CCc1ccccc1)Cc1cc2cccc(C)c2[nH]c1=O (centres undefined) | n

For the next question, use this molecule.
GET /call?item= O=C(NCc1ccccc1Cl)C1CCN(S(=O)(=O)c2cccc3nonc23)CC1 returns the recorded outcome of this test.
y

====

- assay-text: compounds altering RPL19A-GFP fluorescence, TOR branch – cell-based, S. cerevisiae, multiplex flow cytometry, MLPCN, primary screen (AID 2025);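 also: median channel GFP fluorescence of the barcoded RPL19A-GFP strain; ratio of sample median GFP to plate DMSO average so 100% = DMSO; lower means less RPL19A-GFP as with rapamycin TOR inhibition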
- test-parameters: S. cerevisiae RPL19A-GFP strain, 3 h, at 10 µM
The whole screen tested about 330,000 compounds, of which about 980 (0.3%) were called active.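 Rule for the calls: active = percent response vs DMSO below 50%; inconclusive = fewer than 70 events counted for the yeast strain; inactive = the rest.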 This is one part of a sample in which actives are shown more often than they occur.
Please answer using one outcome listed in 1 (active), -1 (inactive)

Completed entries (count: 4):
molecule | classification
CCCCc1c(O)nc2n(c1=O)CCS2 | -1
Clc1c(OCCCn2ccnc2)ccc2ccccc12 | -1
Cc1c2cnn(CC(=O)NCc3ccccn3)c(=O)c2c(C)n1Cc1ccc(Cl)cc1 | 1
COc1ccc2[nH]c(=O)c(C3c4cc(OC)c(OC)cc4CCN3C(=O)c3ccco3)cc2c1 (stereo unspecified) | -1

Any idea what this test logged for Cc1ccc(Cn2c(C)c3cnn(CC(=O)NCc4ccccn4)c(=O)c3c2C)cc1 ?
-1

Test call for this molecule, please: CCS(=O)(=O)Nc1ccc(C2=NN(C(C)=O)C(c3cccs3)C2)cc1 (stereo unspecified)
-1

Please indicate how the test categorized C=C1CCN([C@@H](Cc2ccccc2)C(=O)N2CCOCC2)S(=O)(=O)c2ccccc21 .
-1

Write down the call the test reported for this molecule. Item: CCCCC(CC)CNC(=O)C(=O)C1C(=O)Nc2ccccc21 (stereo unspecified)
-1

Which outcome did this test record for the molecule O=C(Cn1ncc2c3ccccc3n(Cc3ccccc3)c2c1=O)NCc1ccccn1 ?
-1

Tell me the recorded outcome of this test for CCCS(=O)(=O)Nc1ccc(-c2cn3c(n2)SCC3)cc1 .
1

For Cn1c(=O)oc2cc(S(=O)(=O)NCCC(=O)NCc3ccccc3Cl)ccc21 , which call appears in the assay record?
-1

====

- assay-text: compounds altering RPL19A-GFP fluorescence, TOR branch – cell-based, S. cerevisiae, multiplex flow cytometry, MLPCN, primary screen (AID 2025);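 also: median channel GFP fluorescence of the barcoded RPL19A-GFP strain; ratio of sample median GFP to plate DMSO average so 100% = DMSO; lower means less RPL19A-GFP as with rapamycin TOR inhibition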
- test-parameters: S. cerevisiae RPL19A-GFP strain, 3 h, at 10 µM
Out of some 330,000 compounds screened, about 980 (0.3%) were called active.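 The calls were made as follows: active = percent response vs DMSO below 50%; inconclusive = fewer than 70 events counted for the yeast strain; inactive = the rest.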 Only a selection was taken, and actives are over-represented in it overall.
Answer with one of the outcomes given here: Y (active), N (inactive)

Would you mind telling me which call this test gave O=C(CC(n1cncn1)C(Cl)(Cl)Cl)c1ccc([N+](=O)[O-])cc1 (stereo unspecified) ?
N

Test call for this compound, please: Cc1ccccc1S(=O)(=O)Cc1ccc(C(=O)NCCN2CCCCC2C)o1 (stereo unspecified)
Y

Assay outcome for Cc1nc2c(ncn2-c2ccccc2)c(=O)n1NC(=O)CN1CCCC1 : what was it?
Y
